Test system: MS2 coat protein
test_method_notes: apparent KD of MS2 coat protein; higher = weaker reporter binding
measurement_setup: Eterna round: R107; input ligand: tryptophan 2.4 mM
apparent KD of MS2 coat protein for assorted sequences
Dear colleague, please return just the value in nM, with no unit written.

Examples with their reported apparent KD of MS2 coat protein follow.
query_sequence	result_value
GGGCCCGGGCGCGAGCCCGGGCCCAUUGAUACCAGUGAAUGUGUGCGCCCUUGGCAGCGAAUCCUAACAUGAGGAUCACCCAUGU [5.E]	48.3
GGGACAUGAGGAUCACCCAUGUACCGGUCCCGAGGACCGGUACGGCCGCCACUCGAUGACCUCAUAGUCUACUUGAGCAGUAGAC [Geeson]	100
AGUGUUAUAACUGAUACCAGACUCUCAUGUUUACAUGAGGAUCACCCAUGUUAUUUCUUUGUCCCUUGGCAGCAGAAUUAACACA [JR_SSTheophyB_Sub010]	215

Exercise: Which apparent KD of MS2 coat protein value belongs to CUUGUGGUCGGAAGGAGCGCGAUUACAUAACAUGAGGAUCACCCAUGUAAGAAAUUAUUCAUGCAGGUAGGUCGCCGGUCGUGGG [Same State Arginine B GF10] ?
Key: 21.8

Exercise: Which apparent KD of MS2 coat protein value belongs to ACAUGAAGAACAGCGGUGGGCGCGCUCGAUACCAGUACUUUAAAAUACCCUUGGCAGCGACAUGAGGAUCACCCAUGUGAGAUGA [XTheo A #4] ?
Key: 18.5

Exercise: Which apparent KD of MS2 coat protein value belongs to UGUAUGGACUGAAGGAGCGCCUCAAAAUAACAUGAGGAUCACCCAUGUAGGCGAAAGCCUGGGCAGGUAGGUCGCAGUCCAUACU [ArgBX 2 #StaticStem #MS2Late] ?
Key: 12.4

###

Tested on: MS2 coat protein
test_method_notes: apparent KD of MS2 coat protein; designed switch direction (-1 OFF switch, 1 ON switch): -1; higher = weaker reporter binding
measurement_setup: input ligand: none
parameter_measured: apparent KD of MS2 coat protein
Remember to quote the unit after the number.

Examples with their reported apparent KD of MS2 coat protein follow.
query_sequence	target_under_test	result_value
AAUCAUGAACGAGCUUUUUACAUGAGGAUCACCCAUGUCCUCUGCUCGUCUUGUCUUGGGCUUUUUUUGGGUUCGGG [-22.4, -44.7 kcal, A 16%] (Eterna round: R97, puzzle: Sensor, turn-off variant 1)	MS2 coat protein	355 nM
AGAGUGCUGCGAGGAUAUACAUGAGGAUCACCCAUGUAAAUGUGUGAGGCUUUGCCUCACACAAUGUAGAAGGCGCAGUACUCU [Mat - Exclusion NG 2 - Mod of JL - D1] (Eterna round: R96, puzzle: Exclusion NG 2)	MS2 coat protein	15.6 nM
AAGAAUCGCAAUACGAAUAAGCAAUACGAACAAUAGCAAACAUGAGGAUCACCCAUGUCAAGGGUGACAACGCUCUA [JR_Sensorv2_tov2_Sub107] (Eterna round: R96, puzzle: Sensor v2, turn-off variant 2)	MS2 coat protein	862 nM

Exercise: Which apparent KD of MS2 coat protein value belongs to UACAUGAGGAUCACCCAUGUUUUGUCGUGUAUGGUAUUUAUCUAGGAUAUCGAUUUAUUUAACCACGAGAAGGAGAGUAUCAAU [MOD Solution 21 by JMF] (Eterna round: R96, puzzle: Exclusion NG 3) ?
Key: 44.1 nM

Exercise: Which apparent KD of MS2 coat protein value belongs to GGAUCGAAUGUGAGGAUAUGCUGGUCCUUGGAUCAGCAGAAGGCACAUGAGGAUCACCCAUGUGAAGACGGUCC [Eli bmx4 4.31] (Eterna round: R97, puzzle: Brourd's mod of Exclusion 4) ?
Key: 41.4 nM

Exercise: Which apparent KD of MS2 coat protein value belongs to GCGCACCUACCAAAAGGUAGGUCAACAUGAGGAUCACCCAUGUAGGAUAUCGAUUGCUUUGCAGUCGAGAAGGGCAUGAUGCGC [JL ENG3 3.80 Mod 14] (Eterna round: R96, puzzle: Exclusion NG 3) ?
Key: 44.2 nM

Exercise: Which apparent KD of MS2 coat protein value belongs to CCAGUGUGCUUCAGGACAUGAGGAUCACCCAUGUUCGCAAAAUAGGAUAUUGGGUGUAGGCCGCGCAAGAAGGGUUAUGCGAAC [Disobeus] (Eterna round: R96, puzzle: Exclusion NG 3) ?
Key: 83.4 nM

Exercise: Which apparent KD of MS2 coat protein value belongs to ACUCAAUAGUAGGAUAUCAUCAAACUAUUGUGAUGAGAAGGACUAACAUGAGGAUCACCCAUGUUAACGUGAAG [Mod of Brourd 4 - Jieux - Exclusion 6] (Eterna round: R97, puzzle: Exclusion 6) ?
Key: 20.3 nM

Exercise: Which apparent KD of MS2 coat protein value belongs to GUAAAACAUGUAGGAUAUGCGUGGCAAAGCUAUGCAGAAGGACAUGAGGAUCACCCAUGUUAAAGCGUCUGCGUACAGAUGCAA [Mat - Exclusion NG 1 - Mod of JL - D95] (Eterna round: R96, puzzle: Exclusion NG 1) ?
Key: 30.7 nM

Exercise: Which apparent KD of MS2 coat protein value belongs to ACUUAUAGAGGAUAUACAGAUUAUUACAUGAGGAUCACCCAUGUUCUUCAAUGUAUAUAUGUAGAAGGCUAAGGAA [JL-ex5-4.23 Malcolm mod] (Eterna round: R97, puzzle: Exclusion 5) ?
Key: 82.2 nM

Exercise: Which apparent KD of MS2 coat protein value belongs to CCUCUACAUGAGGAUCACCCAUGUGAGGAUAUCAGUGCAAAAGGCACGUAAUAAAUCGUGAGAAGGCACAUGGG [EX1 A.15] (Eterna round: R97, puzzle: Exclusion 1) ?
Key: 112 nM

Exercise: Which apparent KD of MS2 coat protein value belongs to GCGUGGGCCGCAGGAUAUGAGGCCGUGGGUUCACCCAAACACACAUGAGGAUCACCCAUGUGUCAUCAGAAGGGCGAGCCUACU [Sozasora] (Eterna round: R96, puzzle: Exclusion NG 2) ?
Key: 21.4 nM

###

System: K4 kissing-loop RNA reporter;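 further: bound reporter read as fluorescence of individual clusters on recovered sequencing chips by microscopy, with normalized cluster intensities fitted with a binding model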
test_method_notes: apparent KD of K4 kissing-loop reporter; higher = weaker reporter binding
measurement_setup: Eterna round: R107; input ligand: arginine 13.2 mM
parameter_measured: apparent KD of K4 kissing-loop reporter

Examples with their reported apparent KD of K4 kissing-loop reporter follow.
query_sequence	target_under_test	apparent KD of K4 kissing-loop reporter
UUCGAAAGUCGAAGGAGCGCUGGCGGUCAUAGACUAUAUCUGUAGUGAUGUUACAGAUUCCAGCAGGUAGGUCGCGACAGAGACA [Arg B SS t18b]	K4 kissing-loop RNA reporter	88.4 nM
UUAUACAACUGAAGGAGCGCCAGUGAUGUUGGCGUGACGACUGCUUCCUUCGCCGAGUCCUGGCAGGUAGGUCGCAGUUGCUGAA [Oratgere]	K4 kissing-loop RNA reporter	97.2 nM
CACCAUGAAUUCUCUAGGAGUGAUGUUUUUCGAGGACCGGUACGGCCGCCACUCGGACCAGGAACGUGGGAGCGGCGAAAAGACU [ttmullin]	K4 kissing-loop RNA reporter	438 nM
UGAGAGUACCGGAUGGAGAAAUUGUAUGAUACCAGAGCAGAUUACCUCCCUUGGCAGCAUGCAUCCUGCUAGUGAUGUUGGCAAC [theeternabot_sameState_KL_Theo_A_48]	K4 kissing-loop RNA reporter	459 nM
ACCGCAUUGGGAUGAUCCCAAUGCGCUGGUCGAGGACCGGUACGGCCGCCACUCGUCCAGUGAUGUUGGACUAGGGCAACUGAAG [Bileesma]	K4 kissing-loop RNA reporter	270 nM

Please look at the following sequence next.
Exercise: Which apparent KD of K4 kissing-loop reporter value belongs to GCGUUAGUACUCGAUACCAGACCUCUAGUAGUGAUGUUGCUUGGCGAAGGCCUCGAACGAGUCCCUUGGCAGCGAGGAAAGAGGA [theeternabot_sameState_KL_Theo_B_4] ?
Key: 387 nM

###

Tested on: MS2 coat protein
test_method_notes: apparent KD of MS2 coat protein; designed switch direction (-1 OFF switch, 1 ON switch): -1; higher = weaker reporter binding
measurement_setup: input ligand: FMN 200 uM
Each entry falls in a class defined on apparent KD of MS2 coat protein; the bands are group 1: < 30 nM; group 2: ≥ 30 nM and < 200 nM; group 3: ≥ 200 nM

Exercise: Any idea which band ACCAAGUCAGGAUAUCCAGUUAGCCUUCGAGGCUGGGAAUAGGAGAAGGGACAUGAGGAUCACCCAUGUGGGCC [Eternabot (L2) Solution 78] (Eterna round: R97, puzzle: Exclusion 4) is in?
Key: group 3

Exercise: Any idea which band UUAAAUCAUGUAGGAUAUGCUUUGCGAAGCGAGGCAGAAGGACAUGAGGAUCACCCAUGUGCUAGCGUCCGAGAACGGAUGCAA [Mat - Exclusion NG 1 - Mod of JL - D63] (Eterna round: R96, puzzle: Exclusion NG 1) is in?
Key: group 2

Exercise: Any idea which band UAAGAGUGAGGAUAUACGUCGCUGGUCCAGAUGGACGCAUGACAUGAGGAUCACCCAUGUAGAAGGCACAAAAC [Enxela Mod 3 - Jieux - Exclusion 2] (Eterna round: R97, puzzle: Exclusion 2) is in?
Key: group 2

Exercise: Any idea which band GCCUAACAUGAGGAUCACCCAUGUCAGGAUAUCCAUAAACACCGGGAUGUACUGGACGGGAGAAGGGACAGGGC [Escelazari] (Eterna round: R97, puzzle: Exclusion 1) is in?
Key: group 2

Exercise: Any idea which band AGUGUGUGGCAGGAUAUGCUAUUGAUUGGUGAAGCAGAAGGGUCUACAUGAGGAUCACCCAUGUAAGCGGUUGA [Ex6 #28] (Eterna round: R97, puzzle: Exclusion 6) is in?
Key: group 3
